tested on: NCI-H522 lung; assay: NCI tumour cell line growth inhibition, 48 h
Known TGI of a selection of compounds
quantityKind: TGI (µM)

1) Cc1cc(Cl)nc(N(CCNc2ccnc3cc(Cl)ccc23)Cc2ccco2)n1	3.61
2) NNC(=O)C(=O)NN=C(C(Cl)(Cl)CO)C(Cl)(Cl)CO	25
3) COc1ccc(-c2cc(/C=C/C(=O)c3ccc(N)cc3)[nH]n2)cc1OC	3.22
4) CC(C)Cc1ccc(C(C)/C=C2\CCC(CN(C)C)C2=O)cc1 (stereo unspecified)	15.2

----------
test system: SN12C renal; assay: NCI tumour cell line growth inhibition, 48 h
Below is a list of entries, each paired with its recorded TGI value.
quantityKind: TGI

1. CC(=O)c1ccc(Nc2c3c(nc4ccccc24)CCCC3)cc1	> 100 µM
2. COc1ccc(/C=C2\CCC/C(=C\c3ccc(OC)c(OC)c3)C2=O)cc1OC	> 32.5 µM
3. O=c1c(-c2ccccc2)nnc2n(Cc3ccccc3)c3ccccc3n12	> 100 µM
4. O=C(CSCC(=O)N/N=C/c1cccc(O)c1)N/N=C/c1cccc(O)c1	> 100 µM
5. COC(=O)c1cc2c(cc1Cl)Sc1nnc(Nc3ccccc3)n1S2(=O)=O	21.8 µM
6. O=C1c2ccccc2C(=O)c2c(NC3CCCCC3)ccc(Nc3ccc(S(=O)(=O)O)cc3)c21	60.5 µM
7. NNC(=O)C(=O)NN=C(C(Cl)(Cl)CO)C(Cl)(Cl)CO	> 100 µM
8. COc1ccccc1Oc1nccc(-c2c(-c3ccc(F)cc3)ncn2C2CCNCC2)n1	> 25 µM
9. CC12OC(=O)C(C#N)C1(C)C1C(=O)CCCC12 (stereo not drawn)	> 100 µM
10. COC(=O)C(C(=O)C(=O)Nc1c(Cl)cc([N+](=O)[O-])cc1Cl)c1csc(-n2nc(C3=CCCCC3)cc2-c2ccccc2)n1 (stereo not drawn)	> 100 µM
11. COc1ccccc1C1c2cc3c(cc2OC2(OC)COC(=O)C12)OCO3 (stereo not drawn)	> 100 µM
12. Cc1ccc(NC(=O)c2cc(S(=O)(=O)Nc3nnc(-c4ccccc4)c(-c4ccccc4)n3)c(SCc3ccccc3)cc2Cl)cc1	43.9 µM
13. CCOc1cnc(C(O)(c2ccccc2)c2ccccc2)o1	> 100 µM
